Provenance of the data: ChEMBL document CHEMBL3885861

# Lookup of reported Neu keyed by entry
- Organism: Rattus norvegicus
- test_summary: Open TG-GATES - Regimen: Single
- Format: toxicity, organism-based, Sprague-Dawley
- Set-up: regimen Single, gender Male, age 6 weeks
- condition_info: in vivo, po, 0 mg/kg, 6 h, tissue Blood, route gavage, dose level Control
Answer in %, number only, no unit symbol.

>>> reported_measurement("CCCc1cc(=O)[nH]c(=S)[nH]1")
13.6

Given item `Cc1nnc2n1-c1ccc(Cl)cc1C(c1ccccc1Cl)=NC2` , the value recorded as its Neu is 15

# Neu (molecule: `CNC(=C[N+](=O)[O-])NCCSCc1ccc(CN(C)C)o1` ) is 15.8

// field: Neu; key: NC1=NC(=O)C(c2ccccc2)O1 (configuration not stated) ; value = 18

So for CN1C(=O)CCS(=O)(=O)C1c1ccc(Cl)cc1 (configuration not stated) , the logged Neu turned out to be 19.8

GET /value?item= `O=C(OC[C@H]1O[C@@H](OC(=O)c2cc(O)c(O)c(OC(=O)c3cc(O)c(O)c(O)c3)c2)[C@H](OC(=O)c2cc(O)c(O)c(OC(=O)c3cc(O)c(O)c(O)c3)c2)[C@@H](OC(=O)c2cc(O)c(O)c(OC(=O)c3cc(O)c(O)c(O)c3)c2)[C@@H]1OC(=O)c1cc(O)c(O)c(OC(=O)c2cc(O)c(O)c(O)c2)c1)c1cc(O)c(O)c(OC(=O)c2cc(O)c(O)c(O)c2)c1` &field=Neu returns 16.4

The reported value for CS(=O)(=O)O.Cc1ccc(NC(=O)c2ccc(CN3CCN(C)CC3)cc2)cc1Nc1nccc(-c2cccnc2)n1 [IMATINIB MESYLATE] in terms of Neu is 15.2
